# study-system: Human V1b receptor (Homo sapiens, UniProt P47901)
# Sequence (P47901 whole entry): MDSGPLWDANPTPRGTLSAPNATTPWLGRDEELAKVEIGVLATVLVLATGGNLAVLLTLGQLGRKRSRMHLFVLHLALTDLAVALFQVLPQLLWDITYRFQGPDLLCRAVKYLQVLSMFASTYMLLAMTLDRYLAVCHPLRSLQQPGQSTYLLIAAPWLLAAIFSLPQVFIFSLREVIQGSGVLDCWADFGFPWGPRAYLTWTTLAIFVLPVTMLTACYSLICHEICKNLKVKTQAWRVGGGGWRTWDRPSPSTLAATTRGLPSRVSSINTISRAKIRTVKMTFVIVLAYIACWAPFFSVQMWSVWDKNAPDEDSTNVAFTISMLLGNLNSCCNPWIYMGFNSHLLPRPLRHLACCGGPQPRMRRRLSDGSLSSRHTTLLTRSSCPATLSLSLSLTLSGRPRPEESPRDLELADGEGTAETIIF
# protocol-notes: Binding test for V1b receptor ([3H]AVP displacement, crude membrane preparation)
# Design: expressed in transfected cells; host or cells: 293FT cells (transient expression)
# study-conditions: [3H]AVP 0.4 to 1 nmol/L; membranes of 293FT cells transiently expressing human V1b receptor; room temperature, 60 minutes
pIC50: −log10 of the molar value.
Measured pIC50 accompanies every entry in the list below.

compound: COc1cc(-c2cc3cc(OCCCN4CCCCC4)ccc3n2CC(=O)NC(C)C)ccc1F
pIC50: 7.28
//
compound: CC(C)NC(=O)Cn1c(-c2ccc(F)c(Cl)c2)nc2cc(OCCCN3CC4(COC4)C3)ccc21
pIC50: 8.42
//
compound: CC(C)NC(=O)Cn1c(-c2ccc(F)c(Cl)c2)nc2cc(N3CCCN(C)CC3)ccc21
pIC50: 7.81
//
compound: CC(C)NC(=O)Cn1c(-c2ccc(F)c(Cl)c2)nc2cc(OCCCCN3CCCCC3)ccc21
pIC50: 6.75
